Assay: Phase 1 study Part 1: plasma pharmacokinetics after multiple oral doses of Compound 1 as AIC (QD×6 days) in healthy subjects
Type: in vivo, human
Conditions: human, plasma, oral; following multiple doses (60-400 mg QD); read-out: mean terminal half life
quantityName: half-life

Which half-life reading was recorded for the compound C[C@@H]1CC[C@@H](Nc2nc(NC(C)(C)C)ncc2C(N)=O)C[C@H]1O [Compound 1] ?
840 to 1260 min

* * *

Test: in vivo
Settings: rat
quantityName: AUC (ng·h/mL)
Reply numerically in ng·h/mL, unit not repeated.

Which AUC reading was recorded for the compound C[C@@H]1CC[C@@H](Nc2nc(NC(C)(C)C)ncc2C(N)=O)C[C@H]1O ?
23400

* * *

Assay: Phase 1 study Part 1: plasma pharmacokinetics after multiple oral doses of Compound 1 as AIC (QD×6 days) in healthy subjects
Type: in vivo, human
Conditions: human, plasma; Treatment B: 160 mg as AIC, oral QD×6 days; geometric mean (geometric CV%), N=15; read-out: AUC0-τ (τ = 24 hours)
quantityName: AUC (ng·h/mL)
Reply numerically in ng·h/mL, unit not repeated.

Which AUC reading was recorded for the molecule C[C@@H]1CC[C@@H](Nc2nc(NC(C)(C)C)ncc2C(N)=O)C[C@H]1O ?
8560

* * *

Assay: Phase 1 study Part 2: single-dose plasma pharmacokinetics, relative bioavailability (tablet vs AIC) and food effect in healthy subjects
Assay type: in vivo, human
Conditions: human, plasma, po, 200 mg, Treatment E: 1×200 mg formulated tablet, single oral dose, fasted; geometric mean (geometric CV%), N=12; read-out: Vz/F (apparent total volume of distribution)
quantityName: Vd/F (L)
Reply numerically in L, unit not repeated.

Which Vd/F reading was recorded for the molecule C[C@@H]1CC[C@@H](Nc2nc(NC(C)(C)C)ncc2C(N)=O)C[C@H]1O [Compound 1] ?
477

* * *

Assay: Phase 1 study Part 1: plasma pharmacokinetics after multiple oral doses of Compound 1 as AIC (QD×6 days) in healthy subjects
Type: in vivo, human
Details: human, plasma; Treatment A: 60 mg as AIC, oral QD×6 days; geometric mean (geometric CV%), N=15; read-out: AUC0-τ (τ = 24 hours)
quantityName: AUC (ng·h/mL)
Reply numerically in ng·h/mL, unit not repeated.

Which AUC reading was recorded for the compound C[C@@H]1CC[C@@H](Nc2nc(NC(C)(C)C)ncc2C(N)=O)C[C@H]1O ?
2290

* * *

Test: in vivo
Details: dog
quantityName: AUC at 28 days
Show the value, then the unit it is measured in.

Which AUC at 28 days reading was recorded for the molecule C[C@@H]1CC[C@@H](Nc2nc(NC(C)(C)C)ncc2C(N)=O)C[C@H]1O ?
81200 ng·h/mL

* * *

Test: Phase 1 study Part 1: plasma pharmacokinetics after multiple oral doses of Compound 1 as AIC (QD×6 days) in healthy subjects
Type: in vivo, human
Details: human, plasma; Treatment C: 400 mg as AIC, oral QD×6 days; median (minimum, maximum), N=15; read-out: Tmax
quantityName: Tmax
Show the value, then the unit it is measured in.

Which Tmax reading was recorded for the molecule C[C@@H]1CC[C@@H](Nc2nc(NC(C)(C)C)ncc2C(N)=O)C[C@H]1O ?
1.97 h

* * *

Assay: Phase 1 study Part 1: plasma pharmacokinetics after multiple oral doses of Compound 1 as AIC (QD×6 days) in healthy subjects
Type: in vivo, human
Conditions: human, plasma; Treatment C: 400 mg as AIC, oral QD×6 days; geometric mean (geometric CV%), N=15; read-out: AUC0-τ (τ = 24 hours)
quantityName: AUC (ng·h/mL)
Reply numerically in ng·h/mL, unit not repeated.

Which AUC reading was recorded for the compound C[C@@H]1CC[C@@H](Nc2nc(NC(C)(C)C)ncc2C(N)=O)C[C@H]1O ?
31300

* * *

Experiment: Phase 1 study Part 1: plasma pharmacokinetics after multiple oral doses of Compound 1 as AIC (QD×6 days) in healthy subjects
Assay type: in vivo, human
Settings: human, plasma; Treatment B: 160 mg as AIC, oral QD×6 days; median (minimum, maximum), N=15; read-out: Tmax
quantityName: Tmax (h)
Reply numerically in h, unit not repeated.

Which Tmax reading was recorded for the molecule C[C@@H]1CC[C@@H](Nc2nc(NC(C)(C)C)ncc2C(N)=O)C[C@H]1O [Compound 1] ?
1.95

* * *

Assay: Phase 1 study Part 2: single-dose plasma pharmacokinetics, relative bioavailability (tablet vs AIC) and food effect in healthy subjects
Type: in vivo, human
Conditions: human, plasma, po, 200 mg, Treatment D: 2×100 mg as AIC, single oral dose, fasted; median (minimum, maximum), N=12; read-out: Tmax
quantityName: Tmax
Show the value, then the unit it is measured in.

Which Tmax reading was recorded for the molecule C[C@@H]1CC[C@@H](Nc2nc(NC(C)(C)C)ncc2C(N)=O)C[C@H]1O [Compound 1] ?
2 h

* * *

Experiment: Phase 1 study Part 2: single-dose plasma pharmacokinetics, relative bioavailability (tablet vs AIC) and food effect in healthy subjects
Format: in vivo, human
Details: human, plasma, po, 200 mg, Treatment F: 1×200 mg formulated tablet, single oral dose, fed; N=12; read-out: Cmax, Geometric Mean (ANOVA LS mean)
quantityName: Cmax

Which Cmax reading was recorded for the compound C[C@@H]1CC[C@@H](Nc2nc(NC(C)(C)C)ncc2C(N)=O)C[C@H]1O ?
1840 ng/mL

* * *

Test: Solid state chemical stability under stress conditions (HPLC with UV detection)
Settings: solid state, open vial, 80° C./75% RH, 2 weeks, HPLC with UV detection
Please go through the items and note down their % Remaining at 80° C./75% RH.
Reply numerically in %, unit not repeated.

Which % Remaining at 80° C./75% RH reading was recorded for the compound O=C(O)[C@H](O)[C@@H](O)C(=O)O [L-tartrate] ?
98.3

Which % Remaining at 80° C./75% RH reading was recorded for the compound C[C@@H]1CC[C@@H](Nc2nc(NC(C)(C)C)ncc2C(N)=O)C[C@H]1O ?
100.8

Which % Remaining at 80° C./75% RH reading was recorded for the compound C[C@@H]1CC[C@@H](Nc2nc(NC(C)(C)C)ncc2C(N)=O)C[C@H]1O.O=P(O)(O)O ?
99.9

Which % Remaining at 80° C./75% RH reading was recorded for the compound C[C@@H]1CC[C@@H](Nc2nc(NC(C)(C)C)ncc2C(N)=O)C[C@H]1O.O=S(=O)(O)O ?
100.1

Which % Remaining at 80° C./75% RH reading was recorded for the compound C[C@@H]1CC[C@@H](Nc2nc(NC(C)(C)C)ncc2C(N)=O)C[C@H]1O.O=C(O)C[C@H](O)C(=O)O [L-malate] ?
92.9

Which % Remaining at 80° C./75% RH reading was recorded for the compound CC1CCC(Nc2nc(NC(C)(C)C)ncc2C(N)=O)CC1O.Cl (stereo not shown) [HCl] ?
100.4

Which % Remaining at 80° C./75% RH reading was recorded for the compound CC(O)C(=O)O.CC1CCC(Nc2nc(NC(C)(C)C)ncc2C(N)=O)CC1O [L-lactate] ?
100.5

* * *

Assay: Phase 1 study Part 2: single-dose plasma pharmacokinetics, relative bioavailability (tablet vs AIC) and food effect in healthy subjects
Type: in vivo, human
Conditions: human, plasma, po, 200 mg, Treatment E: 1×200 mg formulated tablet, single oral dose, fasted; N=12; read-out: AUCt, Geometric Mean (ANOVA LS mean)
quantityName: AUC(0-t) (ng·h/mL)
Reply numerically in ng·h/mL, unit not repeated.

Which AUC(0-t) reading was recorded for the molecule C[C@@H]1CC[C@@H](Nc2nc(NC(C)(C)C)ncc2C(N)=O)C[C@H]1O ?
11900

* * *

Test: Phase 1 study Part 2: single-dose plasma pharmacokinetics, relative bioavailability (tablet vs AIC) and food effect in healthy subjects
Assay type: in vivo, human
Details: human, plasma, po, 200 mg, Treatment D: 2×100 mg as AIC, single oral dose, fasted; geometric mean (geometric CV%), N=12; read-out: AUC∞
quantityName: AUC(0-inf) (ng·h/mL)
Reply numerically in ng·h/mL, unit not repeated.

Which AUC(0-inf) reading was recorded for the molecule C[C@@H]1CC[C@@H](Nc2nc(NC(C)(C)C)ncc2C(N)=O)C[C@H]1O ?
13100

* * *

Assay: Phase 1 study Part 2: single-dose plasma pharmacokinetics, relative bioavailability (tablet vs AIC) and food effect in healthy subjects
Format: in vivo, human
Conditions: human, plasma, po, 200 mg, Treatment E: 1×200 mg formulated tablet, single oral dose, fasted; geometric mean (geometric CV%), N=12; read-out: AUCτ (time 0 to the last quantifiable concentration)
quantityName: AUC(0-t) (ng·h/mL)
Reply numerically in ng·h/mL, unit not repeated.

Which AUC(0-t) reading was recorded for the molecule C[C@@H]1CC[C@@H](Nc2nc(NC(C)(C)C)ncc2C(N)=O)C[C@H]1O [Compound 1] ?
11900

* * *

Test: Phase 1 study Part 2: single-dose plasma pharmacokinetics, relative bioavailability (tablet vs AIC) and food effect in healthy subjects
Format: in vivo, human
Conditions: human, plasma, po, 200 mg, Treatment F: 1×200 mg formulated tablet, single oral dose, fed; median (minimum, maximum), N=12; read-out: Tmax
quantityName: Tmax (h)
Reply numerically in h, unit not repeated.

Which Tmax reading was recorded for the compound C[C@@H]1CC[C@@H](Nc2nc(NC(C)(C)C)ncc2C(N)=O)C[C@H]1O [Compound 1] ?
3
